Tested system: T1, human EphB4 ephrin-binding domain, EphB4 (17-196) (human, UniProt P54760 17-196)
T1 sequence: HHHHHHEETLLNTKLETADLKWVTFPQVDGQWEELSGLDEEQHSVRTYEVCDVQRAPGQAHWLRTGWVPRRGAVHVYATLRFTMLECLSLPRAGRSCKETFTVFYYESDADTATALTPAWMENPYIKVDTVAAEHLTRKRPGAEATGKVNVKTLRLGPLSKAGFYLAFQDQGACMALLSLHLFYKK
Method summary: ITC at 25 °C, peptide injected into human EphB4 (17-196)
Result type: Kd (nM)
The figure you give is taken to be in nM; do not add the unit.

Sample answers from the record:
Binder	Unit tag	Kd
LFSPNGPIARAW (TNYL-RAW without Thr-P1, Asn-P2 and Tyr-P3) [LFSP-RAW peptide (LFSPNGPIARAW)]	nM	3500
NYLFSPNGPIARAW [NYLF-RAW peptide (NYLFSPNGPIARAW)]	nM	65
YLFSPNGPIARAW [YLFS-RAW peptide (YLFSPNGPIARAW)]	nM	80

Attention now shifts to the item below.
May I ask what Kd has been recorded for TNYLFSPNGPIARAW (Synthetic 15-mer (Biopeptide, Inc.); Peptide positions are printed as P1 to P15; also called antagonistic peptide) [TNYL-RAW peptide (TNYLFSPNGPIARAW)] ?
71
